Reported efflux ratio at 2 h, 1 µM values for a set of compounds
Target: P-gp (MDR1) (Homo sapiens (Human), UniProt P08183)
Sequence (P08183 whole entry, species assumed): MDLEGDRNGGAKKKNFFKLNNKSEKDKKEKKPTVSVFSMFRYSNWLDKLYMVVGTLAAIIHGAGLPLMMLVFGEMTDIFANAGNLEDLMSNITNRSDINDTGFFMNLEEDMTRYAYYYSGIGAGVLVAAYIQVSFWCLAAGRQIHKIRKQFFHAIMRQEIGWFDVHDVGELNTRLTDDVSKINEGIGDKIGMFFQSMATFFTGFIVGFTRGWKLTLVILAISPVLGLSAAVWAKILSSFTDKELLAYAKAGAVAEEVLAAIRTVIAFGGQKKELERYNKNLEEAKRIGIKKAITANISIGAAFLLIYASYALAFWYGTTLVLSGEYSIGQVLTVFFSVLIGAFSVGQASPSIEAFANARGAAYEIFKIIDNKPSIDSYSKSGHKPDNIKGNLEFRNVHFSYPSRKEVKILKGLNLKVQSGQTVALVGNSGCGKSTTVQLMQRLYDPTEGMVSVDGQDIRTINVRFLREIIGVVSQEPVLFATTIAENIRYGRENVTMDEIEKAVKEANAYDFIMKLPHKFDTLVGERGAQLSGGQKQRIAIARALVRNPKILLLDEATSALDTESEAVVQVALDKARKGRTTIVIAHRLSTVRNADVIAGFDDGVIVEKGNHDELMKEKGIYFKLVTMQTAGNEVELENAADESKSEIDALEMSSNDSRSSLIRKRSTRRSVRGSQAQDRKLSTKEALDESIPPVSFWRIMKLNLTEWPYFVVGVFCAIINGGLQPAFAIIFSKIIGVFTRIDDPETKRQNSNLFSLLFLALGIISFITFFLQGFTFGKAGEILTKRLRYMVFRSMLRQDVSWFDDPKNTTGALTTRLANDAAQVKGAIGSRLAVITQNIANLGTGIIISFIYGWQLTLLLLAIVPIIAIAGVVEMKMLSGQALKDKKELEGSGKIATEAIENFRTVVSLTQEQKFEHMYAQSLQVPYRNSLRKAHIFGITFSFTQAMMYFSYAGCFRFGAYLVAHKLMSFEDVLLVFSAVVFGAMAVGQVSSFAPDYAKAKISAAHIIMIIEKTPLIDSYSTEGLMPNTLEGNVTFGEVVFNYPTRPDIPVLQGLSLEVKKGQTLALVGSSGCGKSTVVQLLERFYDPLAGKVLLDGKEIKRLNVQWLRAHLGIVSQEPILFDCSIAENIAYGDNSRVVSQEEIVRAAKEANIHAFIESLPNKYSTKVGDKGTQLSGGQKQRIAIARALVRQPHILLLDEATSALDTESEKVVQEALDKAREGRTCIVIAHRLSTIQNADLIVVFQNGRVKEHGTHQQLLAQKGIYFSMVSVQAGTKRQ
Test: MDR1 LLC-PK1 permeability assay: efflux ratio
Conditions: pig, LLC-PK1
Where a name gives a salt, the structure may show the parent alone.

[
  {
    "COMPOUND": "CCCS(=O)(=O)Nc1ccc(F)c(Nc2ccc3ncn(CC(F)(F)F)c(=O)c3c2C)c1Cl",
    "efflux ratio at 2 h, 1 µM": 1.36
  },
  {
    "COMPOUND": "CCCS(=O)(=O)Nc1ccc(F)c(Nc2ccc3ncn(C)c(=O)c3c2C)c1C",
    "efflux ratio at 2 h, 1 µM": 2.79
  },
  {
    "COMPOUND": "CCCS(=O)(=O)Nc1ccc(F)c(Nc2ccc3ncn(-c4ccccc4)c(=O)c3c2C)c1Cl [Example 32, trifluoroacetate]",
    "efflux ratio at 2 h, 1 µM": 0.86
  }
]

Now consider a different compound.
Indicate the recorded efflux ratio at 2 h, 1 µM value for this compound: Cc1c(Oc2c(F)ccc(NS(=O)(=O)CCCF)c2Cl)ccc2ncn(C)c(=O)c12 1.8

Reference source for all entries: patent US11414404B2
